Origin of measurements: patent US10364245B2

# assay-system: p38 alpha (Homo sapiens, UniProt Q16539)
# Sequence (Q16539 whole entry): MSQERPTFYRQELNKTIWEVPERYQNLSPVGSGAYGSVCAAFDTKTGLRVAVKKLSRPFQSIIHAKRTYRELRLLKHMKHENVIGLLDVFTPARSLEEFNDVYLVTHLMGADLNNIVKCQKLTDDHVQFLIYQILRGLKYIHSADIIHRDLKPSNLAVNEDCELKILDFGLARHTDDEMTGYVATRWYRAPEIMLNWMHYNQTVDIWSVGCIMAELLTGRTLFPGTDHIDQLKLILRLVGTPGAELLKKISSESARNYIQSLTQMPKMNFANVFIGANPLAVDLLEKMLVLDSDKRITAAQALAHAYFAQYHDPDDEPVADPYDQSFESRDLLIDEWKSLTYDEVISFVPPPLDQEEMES
# run-description: P38 alpha enzyme inhibition assay (Alphascreen kinase activity assay)
# details: 100 pM p38 alpha, 2 hours preincubation at 25° C., 250 μM ATP, ATF-2 fusion protein; read-out: p38α inhibition
pIC50: −log10 of the molar value. Structures can show the parent of a compound that is named as a salt.
readout: pIC50

// query pIC50 value for entry CC(C)(C)c1cc(NC(=O)N[C@H]2CC[C@@H](Oc3ccc4nnc(C(C)(C)C)n4c3)c3ccccc32)cc(C(=O)NCCCN2CCOCC2)n1
8.00 to 9.00

// query pIC50 value for entry CCN(CC)c1nnc2ccc(O[C@@H]3CC[C@H](NC(=O)Nc4cc(C(=O)NCC(C)(C)N(C)C)nc(C(C)(C)C)c4)c4ccccc43)cn12 [Example 204, formate salt]
> 9.00

// query pIC50 value for entry CN1CCC[C@H]1C(=O)NCc1nc(NC(=O)N[C@H]2CC[C@@H](Oc3ccc4nnc(C(C)(C)C)n4c3)c3ccccc32)cc(C(C)(C)C)n1
8.00 to 9.00

// query pIC50 value for entry CC(C)c1nnc2ccc(O[C@@H]3CC[C@H](NC(=O)Nc4cc(C(C)(C)C)nc(C(=O)NCCO)n4)c4ccccc43)cn12
> 9.00

// query pIC50 value for entry CCc1nc(NC(=O)N[C@H]2CC[C@@H](Oc3ccc4nnc([C@]5(C)CCCN5C)n4c3)c3ccccc32)cc(C(C)(C)C)n1
8.00 to 9.00

// query pIC50 value for entry CCC(C)(C)c1nnc2ccc(O[C@@H]3CC[C@H](NC(=O)Nc4cc(C(=O)NCCN(C)C)nc(C(C)(C)C)c4)c4ccccc43)cn12
> 9.00

// query pIC50 value for entry CCN(C)CCNC(=O)c1cc(NC(=O)N[C@H]2CC[C@@H](Oc3ccc4nnc(C(C)(C)C)n4c3)c3ccccc32)cc(C(C)(C)C)n1
8.00 to 9.00
